tested on: LU-01-0015 xenotransplantation (PDX) from lung cancer patients; assay: In vivo efficacy, LU-01-0015 xenotransplantation (PDX) from lung cancer patients; design: species or system BALB/c nude mice; details: 23 days; 25 mg/kg orally everyday
The entries below are paired with their reported log10(Tumor volume).
Scale: decimal log of Tumor volume, Tumor volume in mm^3.

>>> measured_number("C[C@@H](Oc1cc(-c2cnn(C3CCNCC3)c2)cnc1N)c1c(Cl)ccc(F)c1Cl [Crizotinib, reference compound]")
2.64
>>> measured_number("COc1cc(N2CCC(N3CCN(C)CC3)CC2)ccc1Nc1ncc(Cl)c(Nc2ccccc2P(C)(C)=O)n1 [AP26113, reference compound]")
2.08
>>> measured_number("COc1cc(N2CCC3(CCN(C)CC3)CC2)ccc1Nc1ncc(Cl)c(Nc2ccc(F)cc2P(C)(C)=O)n1")
1.72

In the following, a different compound is considered.
Input line: Specify measured log10(Tumor volume) for "COc1cc(N2CCC3(CCN(C)CC3)CC2)ccc1Nc1ncc(Cl)c(Nc2ccccc2P(C)(C)=S)n1" .
Output line: 1.51

====

Quick list: Tumor volume per entry.
tested on: LU-01-0015 xenotransplantation (PDX) from lung cancer patients; test: In vivo efficacy, LU-01-0015 xenotransplantation (PDX) from lung cancer patients; design: species or system BALB/c nude mice; settings: 6 days; 25 mg/kg orally everyday
Record the result as a number with its unit.

These solved cases illustrate the format of a correct answer.
>>> result("COc1cc(C2CCC3(CC2)CCN(C)CC3)ccc1Nc1ncc(Cl)c(Nc2ccccc2P(C)(C)=O)n1 [Compound 27]")
"82 mm^3"
>>> result("COc1cc(N2CCC(N3CCN(C)CC3)CC2)ccc1Nc1ncc(Cl)c(Nc2ccccc2P(C)(C)=O)n1 [AP26113, reference compound]")
"174 mm^3"
>>> result("C[C@@H](Oc1cc(-c2cnn(C3CCNCC3)c2)cnc1N)c1c(Cl)ccc(F)c1Cl [Crizotinib, reference compound]")
"288 mm^3"
>>> result("COc1cc(N2CCC3(CCN(C)CC3)CC2)ccc1Nc1ncc(Cl)c(Nc2ccccc2P(C)(C)=O)n1 [Compound 9]")
"108 mm^3"
>>> result("COc1cc(N2CCC3(CCN(C)CC3)CC2)ccc1Nc1ncc(Cl)c(Nc2ccc(F)cc2P(C)(C)=O)n1 [Compound 26]")
"127 mm^3"
>>> result("COc1cc(N2CCC3(CCN(C)CC3)CC2)c(Cl)cc1Nc1ncc(Cl)c(Nc2ccccc2P(C)(C)=O)n1 [Compound 22]")
"137 mm^3"

Input line: Entry COc1cc(N2CCC3(CC2)CN(C)C3)ccc1Nc1ncc(Cl)c(Nc2ccccc2P(C)(C)=O)n1 [Compound 5] needs its Tumor volume filled in; supply it.
Output line: 214 mm^3

Input line: Tell us which Tumor volume value is on record for COc1cc(N2CCC3(CCN(C)CC3)CC2)ccc1Nc1ncc(Cl)c(Nc2ccccc2P(C)(C)=S)n1 [Compound 12]
Output line: 97 mm^3

====

# pIC50 listing for each entry below
molecular target: ALK C1156Y (Homo sapiens, UniProt Q9UM73, C1156Y); experiment: ALK C1156Y enzymatic inhibition (HTRF); details: 30 μM ATP
Sequence (Q9UM73 19-1620 C1156Y): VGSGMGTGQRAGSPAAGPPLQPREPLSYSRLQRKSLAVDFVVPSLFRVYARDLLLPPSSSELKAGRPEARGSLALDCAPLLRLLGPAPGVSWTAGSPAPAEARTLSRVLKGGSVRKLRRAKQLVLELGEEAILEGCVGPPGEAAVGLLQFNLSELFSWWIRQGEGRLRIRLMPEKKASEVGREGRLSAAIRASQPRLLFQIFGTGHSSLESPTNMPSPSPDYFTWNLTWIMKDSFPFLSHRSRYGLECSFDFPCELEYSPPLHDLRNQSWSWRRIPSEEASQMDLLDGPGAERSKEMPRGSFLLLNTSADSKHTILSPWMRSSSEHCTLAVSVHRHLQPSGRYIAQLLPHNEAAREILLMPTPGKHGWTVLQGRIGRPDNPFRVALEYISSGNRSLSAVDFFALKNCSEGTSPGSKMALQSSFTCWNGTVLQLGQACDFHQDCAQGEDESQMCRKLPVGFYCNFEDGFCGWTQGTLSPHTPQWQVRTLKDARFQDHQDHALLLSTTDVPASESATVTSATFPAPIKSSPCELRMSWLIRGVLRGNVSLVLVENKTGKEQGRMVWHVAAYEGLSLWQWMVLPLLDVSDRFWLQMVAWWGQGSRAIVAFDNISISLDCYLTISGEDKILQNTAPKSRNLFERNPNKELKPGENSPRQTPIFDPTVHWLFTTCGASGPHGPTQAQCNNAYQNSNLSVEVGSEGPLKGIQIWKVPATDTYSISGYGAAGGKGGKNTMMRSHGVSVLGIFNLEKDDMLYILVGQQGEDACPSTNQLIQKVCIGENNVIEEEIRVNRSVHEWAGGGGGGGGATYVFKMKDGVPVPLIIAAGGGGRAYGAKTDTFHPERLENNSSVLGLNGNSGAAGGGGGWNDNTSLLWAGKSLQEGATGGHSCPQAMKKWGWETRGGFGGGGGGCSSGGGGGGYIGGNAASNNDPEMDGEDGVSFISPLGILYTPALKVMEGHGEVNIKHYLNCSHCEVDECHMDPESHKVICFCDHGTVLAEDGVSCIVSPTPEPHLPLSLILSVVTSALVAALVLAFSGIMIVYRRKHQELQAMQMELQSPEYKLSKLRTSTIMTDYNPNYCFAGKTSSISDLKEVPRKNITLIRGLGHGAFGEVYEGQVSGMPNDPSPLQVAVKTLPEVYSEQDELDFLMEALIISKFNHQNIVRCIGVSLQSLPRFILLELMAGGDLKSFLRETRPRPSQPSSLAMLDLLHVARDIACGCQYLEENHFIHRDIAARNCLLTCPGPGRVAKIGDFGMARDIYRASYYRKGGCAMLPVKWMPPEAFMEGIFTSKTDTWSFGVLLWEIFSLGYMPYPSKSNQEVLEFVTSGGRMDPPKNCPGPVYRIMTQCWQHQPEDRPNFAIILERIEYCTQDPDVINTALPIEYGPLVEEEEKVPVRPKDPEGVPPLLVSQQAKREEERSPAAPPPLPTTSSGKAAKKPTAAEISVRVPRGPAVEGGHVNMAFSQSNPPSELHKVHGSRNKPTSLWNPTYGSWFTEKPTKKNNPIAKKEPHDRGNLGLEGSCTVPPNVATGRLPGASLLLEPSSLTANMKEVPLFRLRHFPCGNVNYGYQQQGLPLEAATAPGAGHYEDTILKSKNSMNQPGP
pIC50: −log10 of the molar value.

See these solved cases before continuing.
>>> result("COc1cc(N2CCC3(CC2)CCN(C(C)C)CC3)ccc1Nc1ncc(Cl)c(Nc2ccccc2P(C)(C)=O)n1")
"7.00 to 9.00"
>>> result("COc1cc(N2CCC3(CCN(C)CC3)CC2)ccc1Nc1ncnc(Nc2ccccc2P(C)(C)=O)n1")
"6.00 to 7.00"
>>> result("COc1cc(N2CCC3(CCN(C)CC3)CC2)ccc1Nc1nc(Nc2ccccc2P(C)(C)=O)c2cc[nH]c2n1")
"7.00 to 9.00"
>>> result("COc1cc(N2CCC3(CC2)CC(N(C)C)C3)ccc1Nc1ncc(Cl)c(Nc2ccccc2P(C)(C)=O)n1")
"7.00 to 9.00"
>>> result("COc1cc(N2CCC3(CCC(N(C)C)CC3)CC2)ccc1Nc1ncc(Cl)c(Nc2ccccc2P(C)(C)=O)n1")
"7.00 to 9.00"
>>> result("COc1cc(N2CCC3(CCN(C)CC3)CC2)c(Br)cc1Nc1ncc(Cl)c(Nc2ccccc2P(C)(C)=O)n1")
"7.00 to 9.00"
>>> result("COc1cc(N2CCC3(CCN(C)CC3)CC2)ccc1Nc1ncc(Cl)c(N(C)c2ccccc2P(C)(C)=O)n1")
"< 6.00"

Turning now to a further compound:
Input line: Retrieve pIC50 measured for "COc1cc(N2CCC3(CCN(C)CC3)CC2)ccc1Nc1ncc(Cl)c(Nc2ccccc2P(C)(C)=O)n1" and print it.
Output line: 7.00 to 9.00

====

target: ALK L1196M (Homo sapiens, UniProt Q9UM73, L1196M); experiment: ALK L1196M enzymatic inhibition (HTRF); settings: 30 μM ATP
Sequence (Q9UM73 19-1620 L1196M): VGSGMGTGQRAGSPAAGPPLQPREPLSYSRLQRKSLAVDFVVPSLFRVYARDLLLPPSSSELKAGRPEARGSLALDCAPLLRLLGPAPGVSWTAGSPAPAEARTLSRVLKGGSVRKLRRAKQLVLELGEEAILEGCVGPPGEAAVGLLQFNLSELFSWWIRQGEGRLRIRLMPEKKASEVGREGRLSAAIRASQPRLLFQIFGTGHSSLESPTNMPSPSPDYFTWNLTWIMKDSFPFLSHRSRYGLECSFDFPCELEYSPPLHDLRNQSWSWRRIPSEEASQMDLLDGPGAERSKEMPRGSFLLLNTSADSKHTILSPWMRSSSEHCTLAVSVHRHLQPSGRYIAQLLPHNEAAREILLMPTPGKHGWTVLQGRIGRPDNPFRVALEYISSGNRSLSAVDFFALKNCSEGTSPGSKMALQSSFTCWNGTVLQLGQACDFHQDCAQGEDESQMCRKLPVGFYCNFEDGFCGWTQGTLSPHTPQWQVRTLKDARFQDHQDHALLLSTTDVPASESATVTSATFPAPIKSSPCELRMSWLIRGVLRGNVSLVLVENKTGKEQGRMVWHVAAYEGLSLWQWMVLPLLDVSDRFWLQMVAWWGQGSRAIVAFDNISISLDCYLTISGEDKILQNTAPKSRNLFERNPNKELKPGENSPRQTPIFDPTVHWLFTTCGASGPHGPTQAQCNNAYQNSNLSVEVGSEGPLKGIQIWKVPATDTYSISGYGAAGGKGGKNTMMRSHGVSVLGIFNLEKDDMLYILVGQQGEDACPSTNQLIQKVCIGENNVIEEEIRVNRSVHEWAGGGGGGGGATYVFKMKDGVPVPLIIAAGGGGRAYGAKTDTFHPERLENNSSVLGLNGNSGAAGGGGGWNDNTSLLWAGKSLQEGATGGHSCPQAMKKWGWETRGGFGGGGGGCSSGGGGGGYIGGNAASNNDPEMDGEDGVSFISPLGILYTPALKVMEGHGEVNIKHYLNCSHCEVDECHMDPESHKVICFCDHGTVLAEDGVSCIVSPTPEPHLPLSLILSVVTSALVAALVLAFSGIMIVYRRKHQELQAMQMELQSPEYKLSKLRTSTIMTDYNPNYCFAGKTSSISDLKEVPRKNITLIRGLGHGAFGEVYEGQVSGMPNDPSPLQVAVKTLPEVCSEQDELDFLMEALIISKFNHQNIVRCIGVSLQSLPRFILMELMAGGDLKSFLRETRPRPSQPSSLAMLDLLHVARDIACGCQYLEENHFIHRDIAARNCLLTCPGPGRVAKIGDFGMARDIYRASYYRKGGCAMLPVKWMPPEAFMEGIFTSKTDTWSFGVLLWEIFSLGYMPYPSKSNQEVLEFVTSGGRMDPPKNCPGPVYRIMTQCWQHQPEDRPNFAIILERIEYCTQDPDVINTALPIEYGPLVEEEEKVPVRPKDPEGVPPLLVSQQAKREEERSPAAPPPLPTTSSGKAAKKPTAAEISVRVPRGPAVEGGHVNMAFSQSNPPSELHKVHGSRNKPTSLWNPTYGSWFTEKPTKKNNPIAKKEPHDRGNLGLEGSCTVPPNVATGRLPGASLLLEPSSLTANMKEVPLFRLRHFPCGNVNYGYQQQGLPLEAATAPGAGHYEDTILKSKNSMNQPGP
pIC50: −log10 of the molar value.
Result Type: pIC50

Input line: Give the reported pIC50 for this compound. CN1CCC2(CCC(c3ccc(Nc4ncc(Cl)c(Nc5ccccc5P(C)(C)=O)n4)c(OC(F)F)c3)CC2)CC1 [Compound 28]
Output line: 7.00 to 9.00

Input line: Respond only with pIC50 recorded for COc1cc(N2CCC3(CCN(C)CC3)CC2)ccc1Nc1ncc(Cl)c(N(C)c2ccccc2P(C)(C)=O)n1 [Compound 18]
Output line: < 6.00

Input line: Tell me measured pIC50 for COc1cc(N2CCC3(CCN(C)CC3)CC2)ccc1Nc1ncc(C(F)(F)F)c(Nc2ccccc2P(C)(C)=O)n1 [Compound 15] please.
Output line: 6.00 to 7.00

Input line: Fill in reported pIC50 for this entry: COc1cc(N2CCC3(CCN(C)CC3)CC2)c(Br)cc1Nc1ncc(Cl)c(Nc2ccccc2P(C)(C)=O)n1 [Compound 21]
Output line: 7.00 to 9.00

Input line: Output pIC50 of COc1cc(N2CCC3(CCN(C)CC3)CC2)ccc1Nc1nc(Nc2ccccc2P(C)(C)=O)c2cc[nH]c2n1 [Compound 17]
Output line: 7.00 to 9.00

Input line: Supply pIC50 value. Item: COc1cc(N2CCC3(CCN(C)CC3)CC2)ccc1Nc1ncnc(Nc2ccccc2P(C)(C)=O)n1 [Compound 16]
Output line: 6.00 to 7.00

Input line: Supply pIC50 value. Item: COc1cc(N2CCC3(CCC(N(C)C)CC3)CC2)ccc1Nc1ncc(Cl)c(Nc2ccccc2P(C)(C)=O)n1 [Compound 14]
Output line: 7.00 to 9.00

Input line: Find the measured pIC50 of COc1cc(N2CCC3(CCN(C)CC3)CC2)ncc1Nc1ncc(Cl)c(Nc2ccccc2P(C)(C)=O)n1 [Compound 24] and report it.
Output line: 7.00 to 9.00

Input line: Give recorded pIC50. COc1ccc(C2CC3(CC(=O)N(C)C3)C2)cc1Nc1ncc(Cl)c(Nc2ccccc2P(C)(C)=O)n1 (stereo not shown) [Compound 2]
Output line: 6.00 to 7.00

Input line: Name the recorded pIC50 of the compound listed here: COc1cc(N2CCC3(CCN(C)CC3)CC2)ccc1Nc1ncc(Cl)c(Oc2ccccc2P(C)(C)=O)n1 [Compound 19]
Output line: < 6.00

====

Each entry below carries its reported pIC50.
target: EGFR T790M/L858R (Homo sapiens, UniProt P00533, L858R/T790M); experiment: EGFR T790M/L858R enzymatic inhibition (HTRF); conditions: 20 μM ATP
Sequence (P00533 25-1210 T790M/L858R): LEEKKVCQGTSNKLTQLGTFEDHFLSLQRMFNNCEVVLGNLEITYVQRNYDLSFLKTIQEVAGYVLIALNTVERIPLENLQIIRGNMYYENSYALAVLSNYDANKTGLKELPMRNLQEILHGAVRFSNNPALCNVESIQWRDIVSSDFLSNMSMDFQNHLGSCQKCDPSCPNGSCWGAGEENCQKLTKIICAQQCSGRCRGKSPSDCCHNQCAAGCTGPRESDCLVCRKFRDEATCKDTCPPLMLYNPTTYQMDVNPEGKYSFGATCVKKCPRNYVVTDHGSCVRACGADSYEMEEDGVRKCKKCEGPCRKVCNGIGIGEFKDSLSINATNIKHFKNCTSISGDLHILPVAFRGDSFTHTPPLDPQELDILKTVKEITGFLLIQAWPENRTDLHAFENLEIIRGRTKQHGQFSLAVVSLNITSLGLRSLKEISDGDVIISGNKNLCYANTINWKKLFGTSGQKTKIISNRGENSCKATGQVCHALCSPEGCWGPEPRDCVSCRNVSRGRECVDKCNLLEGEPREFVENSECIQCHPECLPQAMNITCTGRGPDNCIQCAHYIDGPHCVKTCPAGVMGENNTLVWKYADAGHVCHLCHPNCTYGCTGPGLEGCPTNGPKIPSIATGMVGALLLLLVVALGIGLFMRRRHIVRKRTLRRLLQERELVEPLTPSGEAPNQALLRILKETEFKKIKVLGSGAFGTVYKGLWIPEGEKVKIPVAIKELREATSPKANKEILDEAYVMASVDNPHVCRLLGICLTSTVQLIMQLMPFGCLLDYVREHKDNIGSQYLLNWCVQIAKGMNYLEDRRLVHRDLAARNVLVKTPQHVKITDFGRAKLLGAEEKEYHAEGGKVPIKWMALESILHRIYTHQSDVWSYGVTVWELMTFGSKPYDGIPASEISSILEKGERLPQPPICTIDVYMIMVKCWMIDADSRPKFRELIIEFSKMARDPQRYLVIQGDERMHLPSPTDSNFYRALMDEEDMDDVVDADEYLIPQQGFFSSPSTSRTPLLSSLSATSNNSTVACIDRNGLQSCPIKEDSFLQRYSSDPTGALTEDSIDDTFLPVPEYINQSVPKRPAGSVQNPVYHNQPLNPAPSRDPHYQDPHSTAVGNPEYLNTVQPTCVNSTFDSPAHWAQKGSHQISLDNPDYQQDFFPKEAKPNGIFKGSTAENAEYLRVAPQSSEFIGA
pIC50: −log10 of the molar value.

Solved cases (2 shown):
>>> result("COc1cc(N2CCC3(CCN(C)CC3)CC2)ccc1Nc1ncc(C(F)(F)F)c(Nc2ccccc2P(C)(C)=O)n1 [Compound 15]")
"< 6.00"
>>> result("COc1cc(N2CCC3(CCN(C)CC3)CC2)c(Cl)cc1Nc1ncc(Cl)c(Nc2ccccc2P(C)(C)=O)n1 [Compound 22]")
"7.00 to 9.00"

# ---- query compound ----
Input line: Please look at COc1cc(N2CCC3(CCN(C)CC3)CC2)ccc1Nc1ncnc(Nc2ccccc2P(C)(C)=O)n1 [Compound 16] and tell me its recorded pIC50 on EGFR T790M/L858R (Homo sapiens, UniProt P00533, L858R/T790M).
Output line: 7.00 to 9.00

====

test system: LU-01-0015 xenotransplantation (PDX) from lung cancer patients; test: In vivo efficacy, LU-01-0015 xenotransplantation (PDX) from lung cancer patients; parameters: species or system BALB/c nude mice; details: 23 days; 25 mg/kg orally everyday
Result Type: Tumor volume (mm^3)
Output spec: scalar in mm^3, unitless text.

Input line: Report value: Tumor volume, system: LU-01-0015 xenotransplantation (PDX) from lung cancer patients, molecule: COc1cc(N2CCC3(CCN(C)CC3)CC2)ccc1Nc1ncc(Cl)c(Nc2ccccc2P(C)(C)=O)n1 [Compound 9]
Output line: 43

Input line: Fill in: Tumor volume on LU-01-0015 xenotransplantation (PDX) from lung cancer patients, entry COc1cc(N2CCC3(CCN(C)CC3)CC2)c(Cl)cc1Nc1ncc(Cl)c(Nc2ccccc2P(C)(C)=O)n1 [Compound 22]
Output line: 41

Input line: Recall the reported Tumor volume of COc1cc(C2CCC3(CC2)CCN(C)CC3)ccc1Nc1ncc(Cl)c(Nc2ccccc2P(C)(C)=O)n1 [Compound 27] when tested on LU-01-0015 xenotransplantation (PDX) from lung cancer patients.
Output line: 35

Input line: Return reported Tumor volume for target or system LU-01-0015 xenotransplantation (PDX) from lung cancer patients, item COc1cc(N2CCC3(CC2)CN(C)C3)ccc1Nc1ncc(Cl)c(Nc2ccccc2P(C)(C)=O)n1 [Compound 5] .
Output line: 124
